Target: T1, B-Raf kinase, P15056
T1 chain: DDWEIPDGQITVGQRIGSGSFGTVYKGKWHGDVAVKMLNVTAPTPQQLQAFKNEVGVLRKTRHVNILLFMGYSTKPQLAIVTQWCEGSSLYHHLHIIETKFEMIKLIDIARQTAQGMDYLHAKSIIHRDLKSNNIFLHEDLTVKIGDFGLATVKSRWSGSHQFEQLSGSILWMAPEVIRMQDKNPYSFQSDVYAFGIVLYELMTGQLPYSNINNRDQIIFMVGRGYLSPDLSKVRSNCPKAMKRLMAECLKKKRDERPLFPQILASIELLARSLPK
Test: Kd for the B-Raf dimer interface (FIG. 1), fluorescence titration
// values below are reported Kd

# Binder, Kd / nM
measured = [
    ("GVLRKTRHVNILLFMGYST (modifications not checked) [SEQ ID NO: 1 (B-Raf residues 503-521, …)]", 3840),
    ("GVLLKTRHVNILLFMGYST (modifications not checked) [SEQ ID NO: 6]", 540),
]
